The reported numbers originate from patent US20070055049A1.

# target_or_test_system: HLA-A*0201 (human)
# test_name: competitive inhibition, purified HLA-A2.1, reference peptide
experimental_readout: pIC50
# pIC50 = -log10(concentration in molar units)

Recorded pIC50 (binder FLPSDYFPSV (modifications not checked) [HBV core 18-27 F6>Y analog peptide] ): 8.30
